Values compiled from the RNAGym collection of RNA variant scans (doi:10.1093/nar/gkz1192).

B1: CPEB3 Ribozyme (parent)
chain: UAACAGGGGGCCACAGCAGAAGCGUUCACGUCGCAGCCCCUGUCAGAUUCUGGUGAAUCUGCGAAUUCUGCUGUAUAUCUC

- Variants of: B1
- test.name: self-cleavage, relative activity (ratio to wild type); higher = more cleavage; in vitro, sequencing
Listed next: entries and their corresponding self-cleavage.
Form rule: numeric answer, no unit written next to it.

Any idea what its self-cleavage is? The variant is U31A C71U
0.29

And then G61A , what is it?
0.75

And then U54A A56U , what is it?
0.66

And then A2U A64U , what is it?
0.28

And then U80G , what is it?
1.18

And then U26A U66A , what is it?
0.38

And then G24A A28U , what is it?
0.14

And then C68G U78C , what is it?
0.69

And then U26A A75G , what is it?
0.69

And then C40U A77G , what is it?
0.58

And then A5U C37U , what is it?
0.82

And then A13G A21G , what is it?
0.5
